Where these numbers come from: PubChem BioAssay (NCI)

- PROTOCOL DESCRIPTION: NCI Yeast Anticancer Drug Screen. Data for the mlh1 rad18 strain (AID 175)
- MEASUREMENT CONTEXT: S. cerevisiae mlh1 rad18 strain growth inhibition; at 50.0 µM (retest, dose inferred, filed as 5.0); hits give high values
Compounds without any hit were thinned out: in the full panel of roughly 79,000, 15% have a hit.
Response key: yes (1) means growth inhibition >= 80%; no (0) means growth inhibition < 80%.

{"columns": ["COMPOUND", "CLASS ASSIGNMENT"],
 "data": [
  ["CC(=O)OC1CCC23COC(CC(C)C2C)C3(Br)C1 (stereo unspecified)", "no (0)"],
  ["O=C1C(c2ccccc2)=[N+]([O-])c2ccccc21", "yes (1)"],
  ["CCOc1ccccc1-c1nc2c(s1)C(=O)c1ccccc1C2=O", "yes (1)"],
  ["O=C1NN(C2=NNC3(C(=O)N2)c2ccccc2-c2ccccc23)C(c2ccccc2)=N/C1=C/c1ccc(O)cc1", "no (0)"],
  ["CS/C(N)=N/NC(=O)CCC(=O)Nc1cc(Cl)c(Cl)cc1Cl", "no (0)"],
  ["O=[N+]([O-])c1ccc2c(N=Nc3ccc4ccccc4c3O)c(O)cc(S(=O)(=O)O)c2c1", "no (0)"],
  ["CCCCCCCCCCCCCC(=O)OCC[N+](C)(C)C", "yes (1)"],
  ["COC(=O)C12Oc3ccc(-c4ccc5c(c4O)C(O)=C4C(=O)CC(C)C(O)C4(C(=O)OC)O5)c(O)c3C(O)=C1C(=O)CC(C)C2O (stereo unspecified)", "yes (1)"],
  ["CC1CC[N-]CC1.CC1CC[N-]CC1.CC1CC[N-]CC1.CC1CC[N-]CC1.CS(C)=O.CS(C)=O.[Cl-].[Cl-].[Cl-].[Cl-].[Pt+4].[Rh+3]", "yes (1)"],
  ["Cc1ccc2nc(-[n+]3cc4ccccc4cc3C)ccc2c1", "yes (1)"],
  ["COc1cc(OC)c(SSCCCCS(=O)O)c(OC)c1", "no (0)"],
  ["O=C1CCC(=O)c2c1c(O)c1ccncc1c2O", "yes (1)"],
  ["CCOC(=S)SCc1nc2ccccc2[nH]1", "yes (1)"],
  ["O=Nc1c(O)ccc2ccccc12.[Fe].[Na+]", "yes (1)"],
  ["CCOc1ccc(-c2nc3ccc(-c4nc5ccc(N6CCN(C)CC6)cc5[nH]4)cc3[nH]2)cc1", "yes (1)"],
  ["NNCc1cc(Cl)c2cccnc2c1O", "yes (1)"],
  ["Cc1c(CC=C(c2ccccc2)c2ccccc2)cccc1C[N+](C)(C)C", "yes (1)"],
  ["CS(=O)(=O)OCCCN(CCCOS(C)(=O)=O)c1ccc(C=Nc2ccc(-c3csc(COc4ccc(Br)cc4Br)n3)cc2)cc1", "yes (1)"],
  ["O=S(=O)(O)c1cc(N=Nc2ccc(O)c(O)c2)ccc1/C=C/c1ccc(N=Nc2ccc(O)c(O)c2)cc1S(=O)(=O)O", "yes (1)"],
  ["O=C(Nc1cccc(Br)c1)Oc1cccc2cccnc12", "yes (1)"],
  ["O=C(O)C(c1ccc(Cl)cc1)c1ccc(Cl)cc1", "yes (1)"]
]}
